# assayed-target: HDAC2 (Homo sapiens, UniProt Q92769)
# Construct: purchased Reaction Biology Corporation (assay run by the CRO)
# Sequence (Q92769 whole entry): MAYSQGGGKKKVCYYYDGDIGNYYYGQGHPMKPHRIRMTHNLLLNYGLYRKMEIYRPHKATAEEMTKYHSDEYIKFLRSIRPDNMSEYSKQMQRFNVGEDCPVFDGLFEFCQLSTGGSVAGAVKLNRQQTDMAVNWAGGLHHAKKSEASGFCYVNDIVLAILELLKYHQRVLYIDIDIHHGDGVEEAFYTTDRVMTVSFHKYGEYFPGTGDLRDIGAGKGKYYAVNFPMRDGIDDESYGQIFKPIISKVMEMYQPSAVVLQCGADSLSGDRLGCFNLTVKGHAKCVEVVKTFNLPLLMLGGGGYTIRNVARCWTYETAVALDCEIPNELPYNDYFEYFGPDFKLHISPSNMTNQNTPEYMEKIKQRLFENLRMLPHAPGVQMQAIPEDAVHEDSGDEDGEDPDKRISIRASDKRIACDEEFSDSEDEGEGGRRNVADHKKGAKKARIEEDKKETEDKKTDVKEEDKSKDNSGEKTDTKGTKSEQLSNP
# assay-summary: HDAC2 inhibition, full IC50 measurement (Reaction Biology; fluorogenic p53 peptide RHKK(Ac)AMC)
# Type: biochemical
# conditions: Conc. 5.08E-10 M, t1
Peptide text beside a SMILES is read from it.
Consider the following compounds and their measured HDAC2 activity raw data (signal) readings.
endpoint-name: HDAC2 activity raw data (signal)

{"compound": "N=C(N)NCCC[C@@H]1NC(=O)[C@H](Cc2c[nH]c3ccccc23)NC(=O)[C@H](CC(=O)O)NC(=O)[C@@H](CO)NC(=O)[C@H](Cc2c[nH]c3ccccc23)NC(=O)[C@H](CCCCCS)NC(=O)[C@H](CCC(N)=O)NC1=O [des4.1.0, SHA-Trp-dSer-Asp-Trp-Arg-Gln] (HELM PEPTIDE1{D.W.R.Q.[O=C([C@H](CCCCCS)N[*:1])[*:2]].W.[dS]}$PEPTIDE1,PEPTIDE1,1:R1-7:R2$$$V2.0)", "recorded-result": 1865278}
{"compound": "NCCCC[C@@H]1NC(=O)[C@@H]2CCCN2C(=O)[C@H](CC(N)=O)NC(=O)[C@H](CCCCCS)NC(=O)CNC(=O)[C@H](Cc2c[nH]c3ccccc23)NC(=O)[C@@H](CCCCN)NC(=O)[C@H](CCC(N)=O)NC1=O [des1.1.0, SHA-Asn-Pro-Lys-Gln-dLys-Trp-Gly] (HELM PEPTIDE1{G.[O=C([C@H](CCCCCS)N[*:1])[*:2]].N.P.K.Q.[dK].W}$PEPTIDE1,PEPTIDE1,1:R1-8:R2$$$V2.0)", "recorded-result": 1134293}
{"compound": "CCCC[C@H]1NC(=O)[C@H](Cc2ccccc2)NC(=O)[C@H](CCCCCS)NC(=O)[C@@H](CO)NC(=O)[C@H](CC(=O)O)NC(=O)[C@@H](CO)NC(=O)[C@@H](C)NC(=O)[C@H](CCCCN)NC1=O [des4.3.1.1, SHA-Phe-dNle-Lys-dAla-dSer-Asp-dSer] (HELM PEPTIDE1{D.[dS].[O=C([C@H](CCCCCS)N[*:1])[*:2]].F.[CCCC[C@@H](N[*:1])C(=O)[*:2]].K.[dA].[dS]}$PEPTIDE1,PEPTIDE1,1:R1-8:R2$$$V2.0)", "recorded-result": 1872757}
{"compound": "CSCC[C@H]1NC(=O)[C@@H](CO)NC(=O)[C@H](CC(N)=O)NC(=O)[C@H](CC(=O)O)NC(=O)[C@@H]([C@H](C)O)NC(=O)[C@H](Cc2c[nH]c3ccccc23)NC(=O)[C@H](CCCCCS)NC(=O)[C@H](CCCCN)NC(=O)[C@@H](CC(=O)O)NC1=O [des2.1.1, SHA-Trp-dThr-Asp-Asn-dSer-dMet-dAsp-Lys] (HELM PEPTIDE1{D.N.[dS].[dM].[dD].K.[O=C([C@H](CCCCCS)N[*:1])[*:2]].W.[dT]}$PEPTIDE1,PEPTIDE1,1:R1-9:R2$$$V2.0)", "recorded-result": 1119506}
{"compound": "C[C@H](O)[C@H]1NC(=O)[C@H](Cc2c[nH]c3ccccc23)NC(=O)[C@H](CCCCCS)NC(=O)[C@H](CCCCN)NC(=O)[C@@H](CC(=O)O)NC(=O)[C@@H](CCCCN)NC(=O)[C@@H](CO)NC(=O)[C@H](CC(N)=O)NC(=O)[C@H](CC(=O)O)NC1=O [des2.1.0, SHA-Trp-dThr-Asp-Asn-dSer-dLys-dAsp-Lys] (HELM PEPTIDE1{D.N.[dS].[dK].[dD].K.[O=C([C@H](CCCCCS)N[*:1])[*:2]].W.[dT]}$PEPTIDE1,PEPTIDE1,1:R1-9:R2$$$V2.0)", "recorded-result": 1022928}

* * *

# assayed-target: HDAC3 (Homo sapiens)
# Construct: purchased Reaction Biology Corporation (assay run by the CRO)
# assay-summary: HDAC3 inhibition, full IC50 measurement (Reaction Biology; fluorogenic p53 peptide RHKK(Ac)AMC)
# Assay type: biochemical
# conditions: Conc. 5.08E-10 M, t2
# Procedure: The assay was performed using 50 μM fluorogenic peptide from p53 residues 379-382 [RHKK(Ac)AMC] in a base reaction buffer of 50 mM Tris-HCl at pH 8.0, 137 mM NaCl, 2.7 mM KCl, 1 mM MgCl2, and freshly added 1 mg/ml BSA and 1% DMSO. […] Peptide concentrations were calculated based on mass of lyophilized peptide and its molecular weight. […]
Peptide text beside a SMILES is read from it.

{"compound": "CSCC[C@H]1NC(=O)[C@@H](CO)NC(=O)[C@H](CC(N)=O)NC(=O)[C@H](CC(=O)O)NC(=O)[C@@H]([C@H](C)O)NC(=O)[C@H](Cc2c[nH]c3ccccc23)NC(=O)[C@H](CCCCCS)NC(=O)[C@H](CCCCN)NC(=O)[C@@H](CC(=O)O)NC1=O [des2.1.1, SHA-Trp-dThr-Asp-Asn-dSer-dMet-dAsp-Lys] (HELM PEPTIDE1{D.N.[dS].[dM].[dD].K.[O=C([C@H](CCCCCS)N[*:1])[*:2]].W.[dT]}$PEPTIDE1,PEPTIDE1,1:R1-9:R2$$$V2.0)", "HDAC3 activity raw data (signal)": 1455609}

* * *

Measured HDAC6 activity raw data (signal), listed per entry.
# assayed-target: HDAC6 (Homo sapiens)
# Construct: purchased Reaction Biology Corporation (assay run by the CRO)
# Sequence (Q9UBN7 whole entry): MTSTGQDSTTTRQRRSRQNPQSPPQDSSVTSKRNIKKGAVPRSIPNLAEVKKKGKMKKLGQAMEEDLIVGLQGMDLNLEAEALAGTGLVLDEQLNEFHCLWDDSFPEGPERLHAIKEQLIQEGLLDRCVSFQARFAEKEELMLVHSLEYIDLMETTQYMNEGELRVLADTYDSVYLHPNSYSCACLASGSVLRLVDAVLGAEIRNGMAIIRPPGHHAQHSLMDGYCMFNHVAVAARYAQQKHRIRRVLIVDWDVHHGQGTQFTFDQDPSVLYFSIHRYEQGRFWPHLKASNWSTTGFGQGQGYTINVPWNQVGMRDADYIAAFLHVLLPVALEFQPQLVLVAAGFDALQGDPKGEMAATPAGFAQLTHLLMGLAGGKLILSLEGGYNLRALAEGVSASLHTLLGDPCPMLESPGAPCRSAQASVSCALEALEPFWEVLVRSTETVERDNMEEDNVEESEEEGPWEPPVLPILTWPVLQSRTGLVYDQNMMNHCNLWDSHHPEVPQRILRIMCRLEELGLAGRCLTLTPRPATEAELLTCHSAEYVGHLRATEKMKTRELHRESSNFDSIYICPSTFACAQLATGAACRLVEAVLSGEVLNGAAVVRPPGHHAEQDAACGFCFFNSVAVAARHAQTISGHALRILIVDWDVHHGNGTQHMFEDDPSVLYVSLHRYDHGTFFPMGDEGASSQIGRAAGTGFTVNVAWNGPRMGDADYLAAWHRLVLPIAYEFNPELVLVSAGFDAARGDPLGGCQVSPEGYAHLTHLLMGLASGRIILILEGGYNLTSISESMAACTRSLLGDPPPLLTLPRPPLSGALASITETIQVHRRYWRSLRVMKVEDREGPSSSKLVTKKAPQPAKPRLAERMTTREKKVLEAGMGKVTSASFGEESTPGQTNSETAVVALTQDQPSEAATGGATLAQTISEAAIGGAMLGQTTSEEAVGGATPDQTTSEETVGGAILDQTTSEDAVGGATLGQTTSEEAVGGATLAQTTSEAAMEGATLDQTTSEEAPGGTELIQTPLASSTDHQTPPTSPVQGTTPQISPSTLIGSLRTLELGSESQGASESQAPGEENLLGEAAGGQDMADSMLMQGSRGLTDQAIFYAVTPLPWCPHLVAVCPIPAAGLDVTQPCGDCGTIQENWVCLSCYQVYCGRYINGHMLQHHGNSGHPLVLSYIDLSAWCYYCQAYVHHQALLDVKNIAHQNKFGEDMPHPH
# assay-summary: HDAC6 inhibition, full IC50 measurement (Reaction Biology; fluorogenic p53 peptide RHKK(Ac)AMC)
# Format: biochemical
# conditions: Conc. 1.00E-05 M, t2
Peptide text beside a SMILES is read from it.

{"compound": "N=C(N)NCCC[C@H]1NC(=O)[C@@H]2CCCN2C(=O)[C@H](CO)NC(=O)[C@@H](Cc2c[nH]cn2)NC(=O)[C@H](CCCCCS)NC(=O)[C@H](CCCCN)NC(=O)[C@H](Cc2ccc(O)cc2)NC(=O)[C@H]2CCCN2C(=O)[C@@H](CCC(N)=O)NC1=O [des3.1.0, SHA-dHis-Ser-Pro-dArg-dGln-dPro-Tyr-Lys] (HELM PEPTIDE1{K.[O=C([C@H](CCCCCS)N[*:1])[*:2]].[dH].S.P.[dR].[dQ].[dP].Y}$PEPTIDE1,PEPTIDE1,1:R1-9:R2$$$V2.0)", "HDAC6 activity raw data (signal)": 13038}
{"compound": "CCCC[C@H]1NC(=O)[C@H](Cc2ccccc2)NC(=O)[C@H](CCCCCS)NC(=O)[C@@H](CCCNC(=N)N)NC(=O)[C@H](CC(=O)O)NC(=O)[C@@H](CO)NC(=O)[C@@H](C)NC(=O)[C@H](CCCCN)NC1=O [des4.3.1, SHA-Phe-dNle-Lys-dAla-dSer-Asp-dArg] (HELM PEPTIDE1{D.[dR].[O=C([C@H](CCCCCS)N[*:1])[*:2]].F.[CCCC[C@@H](N[*:1])C(=O)[*:2]].K.[dA].[dS]}$PEPTIDE1,PEPTIDE1,1:R1-8:R2$$$V2.0)", "HDAC6 activity raw data (signal)": 4634}

* * *

# assayed-target: HDAC3 (Homo sapiens, UniProt O15379)
# Construct: purchased Reaction Biology Corporation (assay run by the CRO)
# Sequence (O15379 whole entry): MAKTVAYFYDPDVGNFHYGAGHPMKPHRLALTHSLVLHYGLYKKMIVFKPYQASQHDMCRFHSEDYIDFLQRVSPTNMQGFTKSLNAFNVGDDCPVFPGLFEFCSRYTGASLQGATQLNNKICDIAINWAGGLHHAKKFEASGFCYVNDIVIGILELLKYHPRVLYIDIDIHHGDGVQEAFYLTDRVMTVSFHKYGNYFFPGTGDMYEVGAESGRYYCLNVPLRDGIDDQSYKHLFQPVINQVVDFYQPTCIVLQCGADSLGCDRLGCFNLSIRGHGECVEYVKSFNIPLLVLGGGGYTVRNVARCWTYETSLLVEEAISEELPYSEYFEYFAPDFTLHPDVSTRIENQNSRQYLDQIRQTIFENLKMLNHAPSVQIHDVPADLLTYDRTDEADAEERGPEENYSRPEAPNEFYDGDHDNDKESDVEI
# Sequence (Q9Y618 395-489 partner limits assumed): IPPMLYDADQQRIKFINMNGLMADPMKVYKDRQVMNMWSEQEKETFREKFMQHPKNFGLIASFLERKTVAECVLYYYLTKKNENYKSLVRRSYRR
# assay-summary: HDAC3 inhibition, full IC50 measurement (Reaction Biology; fluorogenic p53 peptide RHKK(Ac)AMC)
# Type: biochemical
# conditions: Conc. 1.23E-07 M, t2
# Description: The assay was performed using 50 μM fluorogenic peptide from p53 residues 379-382 [RHKK(Ac)AMC] in a base reaction buffer of 50 mM Tris-HCl at pH 8.0, 137 mM NaCl, 2.7 mM KCl, 1 mM MgCl2, and freshly added 1 mg/ml BSA and 1% DMSO. […] Peptide concentrations were calculated based on mass of lyophilized peptide and its molecular weight. […]
Peptide text beside a SMILES is read from it.
Below is a list of entries, each paired with its recorded HDAC3 activity raw data (signal) value.
endpoint-name: HDAC3 activity raw data (signal)

{"molecule": "CSCC[C@H]1NC(=O)[C@@H](CO)NC(=O)[C@H](CC(N)=O)NC(=O)[C@H](CC(=O)O)NC(=O)[C@@H]([C@H](C)O)NC(=O)[C@H](Cc2c[nH]c3ccccc23)NC(=O)[C@H](CCCCCS)NC(=O)[C@H](CCCCN)NC(=O)[C@@H](CC(=O)O)NC1=O [des2.1.1, SHA-Trp-dThr-Asp-Asn-dSer-dMet-dAsp-Lys] (HELM PEPTIDE1{D.N.[dS].[dM].[dD].K.[O=C([C@H](CCCCCS)N[*:1])[*:2]].W.[dT]}$PEPTIDE1,PEPTIDE1,1:R1-9:R2$$$V2.0)", "endpoint-name": "HDAC3 activity raw data (signal)", "recorded-result": 273031}
{"molecule": "N=C(N)NCCC[C@@H]1NC(=O)[C@H](Cc2c[nH]c3ccccc23)NC(=O)[C@H](CC(=O)O)NC(=O)[C@@H](CO)NC(=O)[C@H](Cc2c[nH]c3ccccc23)NC(=O)[C@H](CCCCCS)NC(=O)[C@H](CCC(N)=O)NC1=O [des4.1.0, SHA-Trp-dSer-Asp-Trp-Arg-Gln] (HELM PEPTIDE1{D.W.R.Q.[O=C([C@H](CCCCCS)N[*:1])[*:2]].W.[dS]}$PEPTIDE1,PEPTIDE1,1:R1-7:R2$$$V2.0)", "endpoint-name": "HDAC3 activity raw data (signal)", "recorded-result": 392664}
{"molecule": "N=C(N)NCCC[C@@H]1NC(=O)[C@@H](CCCNC(=N)N)NC(=O)[C@H]2CCCN2C(=O)[C@@H](Cc2c[nH]cn2)NC(=O)[C@H](Cc2ccc(O)cc2)NC(=O)[C@H](CCCCCS)NC(=O)[C@H](CCc2ccccc2)NC(=O)[C@@H](CO)NC(=O)[C@H](CC(=O)O)NC1=O [des3.3.1, SHA-Tyr-dHis-dPro-dArg-Arg-Asp-dSer-C27] (HELM PEPTIDE1{[O=C([C@H](CCCCCS)N[*:1])[*:2]].Y.[dH].[dP].[dR].R.D.[dS].[O=C([C@H](CCc1ccccc1)N[*:1])[*:2]]}$PEPTIDE1,PEPTIDE1,1:R1-9:R2$$$V2.0)", "endpoint-name": "HDAC3 activity raw data (signal)", "recorded-result": 40450}
